Experimental Setup: pampa
Description: Effective permeability by PAMPA method
# Peff values compiled below
Enter your answer as a number in ×10⁻⁶ cm/s; do not include the unit.

These recorded examples may help you get a feel for the data.
# Molecular String, Peff [×10⁻⁶ cm/s]
measured = [
    ("O=C(Nc1cccc(OC(F)F)c1)c1ccccn1", 214),
    ("O=C(Nc1ccc(Cl)c(OCF)c1)c1ccccn1", 272),
    ("Cc1ccnc(Nc2nc(-c3cn[nH]c3)c(C)s2)n1", 257),
]

As a next step, examine the compound that follows.
Need Peff of COc1cc(NC(=O)c2ccccn2)ccc1Cl , thanks. 256

====

Target Desc: Metabotropic glutamate receptor 6 (Homo sapiens, UniProt O15303)
Sequence (O15303 whole entry): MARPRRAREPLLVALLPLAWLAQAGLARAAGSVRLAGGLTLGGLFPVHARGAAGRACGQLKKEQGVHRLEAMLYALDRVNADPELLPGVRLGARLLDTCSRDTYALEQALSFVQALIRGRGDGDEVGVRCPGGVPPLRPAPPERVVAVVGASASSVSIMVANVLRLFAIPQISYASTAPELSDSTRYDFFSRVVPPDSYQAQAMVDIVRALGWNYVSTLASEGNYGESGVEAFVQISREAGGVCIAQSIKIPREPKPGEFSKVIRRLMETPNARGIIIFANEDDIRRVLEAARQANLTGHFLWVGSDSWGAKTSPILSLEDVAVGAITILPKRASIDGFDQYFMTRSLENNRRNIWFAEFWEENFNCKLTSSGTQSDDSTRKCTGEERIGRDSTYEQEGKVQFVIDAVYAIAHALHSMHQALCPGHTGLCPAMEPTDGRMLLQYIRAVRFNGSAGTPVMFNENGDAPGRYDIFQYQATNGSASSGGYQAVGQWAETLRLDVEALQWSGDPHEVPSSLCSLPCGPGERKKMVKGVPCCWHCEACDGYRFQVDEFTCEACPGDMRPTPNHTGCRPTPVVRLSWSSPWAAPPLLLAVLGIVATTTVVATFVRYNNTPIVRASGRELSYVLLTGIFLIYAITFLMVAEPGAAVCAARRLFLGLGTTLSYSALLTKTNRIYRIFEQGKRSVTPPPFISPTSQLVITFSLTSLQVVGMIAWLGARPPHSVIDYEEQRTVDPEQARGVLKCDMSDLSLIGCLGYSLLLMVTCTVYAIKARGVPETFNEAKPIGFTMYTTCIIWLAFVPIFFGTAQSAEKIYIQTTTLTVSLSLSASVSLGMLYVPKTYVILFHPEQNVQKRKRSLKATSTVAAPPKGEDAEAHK
Experiment: Activity at mGlu6 receptor (unknown origin) expressed in HEK293 cells pre-treated for 15 mins before addition of EC80 concentration of reference agonist for another 15 mins by cAMP accumulation assay
pIC50: −log10 of the molar value.
Recorded Endpoint: pIC50

Need pIC50 of [2H]C([2H])(F)Oc1cc(NC(=O)c2ccccn2)ccc1Cl , thanks. < 4.52

====

Target Desc: UniProt O00222
Sequence (O00222 whole entry): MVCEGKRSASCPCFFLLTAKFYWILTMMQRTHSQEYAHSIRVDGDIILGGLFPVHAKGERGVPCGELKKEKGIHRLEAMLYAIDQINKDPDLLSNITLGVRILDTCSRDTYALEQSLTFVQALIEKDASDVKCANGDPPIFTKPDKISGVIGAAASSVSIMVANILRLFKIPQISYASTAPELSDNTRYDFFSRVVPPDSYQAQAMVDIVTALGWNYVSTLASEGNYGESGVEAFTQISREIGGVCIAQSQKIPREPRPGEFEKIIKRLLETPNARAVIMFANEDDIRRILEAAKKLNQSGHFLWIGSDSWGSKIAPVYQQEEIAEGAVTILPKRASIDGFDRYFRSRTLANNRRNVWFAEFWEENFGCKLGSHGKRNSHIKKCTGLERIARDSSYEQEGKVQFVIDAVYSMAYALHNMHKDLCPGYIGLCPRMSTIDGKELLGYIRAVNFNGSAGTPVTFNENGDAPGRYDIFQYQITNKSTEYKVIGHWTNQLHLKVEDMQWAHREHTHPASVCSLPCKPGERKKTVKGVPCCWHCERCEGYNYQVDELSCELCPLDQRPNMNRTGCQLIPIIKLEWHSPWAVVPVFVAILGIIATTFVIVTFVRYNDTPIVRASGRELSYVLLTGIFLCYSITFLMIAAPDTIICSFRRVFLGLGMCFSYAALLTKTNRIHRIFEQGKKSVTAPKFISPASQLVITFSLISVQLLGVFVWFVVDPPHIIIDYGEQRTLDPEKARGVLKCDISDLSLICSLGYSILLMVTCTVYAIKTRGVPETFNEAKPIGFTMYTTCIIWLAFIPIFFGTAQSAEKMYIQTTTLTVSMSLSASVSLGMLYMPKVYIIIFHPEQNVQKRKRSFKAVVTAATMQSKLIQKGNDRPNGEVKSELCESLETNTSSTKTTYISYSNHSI
Experiment: Activity at mGlu8 receptor (unknown origin) expressed in HEK293 cells pre-treated for 15 mins before addition of EC80 concentration of reference agonist for another 15 mins by cAMP accumulation assay
Recorded Endpoint: IC50

Record [2H]C([2H])(F)Oc1cc(NC(=O)c2ccccn2)ccc1Cl : what is its IC50 with UniProt O00222? > 30 µM

====

Target Desc: Metabotropic glutamate receptor 4 (Homo sapiens)
Experiment: Positive allosteric modulator activity at human mGlu4 receptor
Recorded Endpoint: pEC50
Scale: pEC50 equals -log10([C]), with [C] in mol/L.

# Molecular String, pEC50
records = [
    ("O=C(Nc1cccc(Cl)c1)c1ccccn1", 5.92),
]

Record c1cnc(Nc2nc3c(s2)CCCc2[nH]ncc2-3)nc1 : what is its pEC50 with Metabotropic glutamate receptor 4 (Homo sapiens)? 8.05

====

Target Desc: Metabotropic glutamate receptor 4 (Homo sapiens, UniProt Q14833)
Sequence (Q14833 whole entry): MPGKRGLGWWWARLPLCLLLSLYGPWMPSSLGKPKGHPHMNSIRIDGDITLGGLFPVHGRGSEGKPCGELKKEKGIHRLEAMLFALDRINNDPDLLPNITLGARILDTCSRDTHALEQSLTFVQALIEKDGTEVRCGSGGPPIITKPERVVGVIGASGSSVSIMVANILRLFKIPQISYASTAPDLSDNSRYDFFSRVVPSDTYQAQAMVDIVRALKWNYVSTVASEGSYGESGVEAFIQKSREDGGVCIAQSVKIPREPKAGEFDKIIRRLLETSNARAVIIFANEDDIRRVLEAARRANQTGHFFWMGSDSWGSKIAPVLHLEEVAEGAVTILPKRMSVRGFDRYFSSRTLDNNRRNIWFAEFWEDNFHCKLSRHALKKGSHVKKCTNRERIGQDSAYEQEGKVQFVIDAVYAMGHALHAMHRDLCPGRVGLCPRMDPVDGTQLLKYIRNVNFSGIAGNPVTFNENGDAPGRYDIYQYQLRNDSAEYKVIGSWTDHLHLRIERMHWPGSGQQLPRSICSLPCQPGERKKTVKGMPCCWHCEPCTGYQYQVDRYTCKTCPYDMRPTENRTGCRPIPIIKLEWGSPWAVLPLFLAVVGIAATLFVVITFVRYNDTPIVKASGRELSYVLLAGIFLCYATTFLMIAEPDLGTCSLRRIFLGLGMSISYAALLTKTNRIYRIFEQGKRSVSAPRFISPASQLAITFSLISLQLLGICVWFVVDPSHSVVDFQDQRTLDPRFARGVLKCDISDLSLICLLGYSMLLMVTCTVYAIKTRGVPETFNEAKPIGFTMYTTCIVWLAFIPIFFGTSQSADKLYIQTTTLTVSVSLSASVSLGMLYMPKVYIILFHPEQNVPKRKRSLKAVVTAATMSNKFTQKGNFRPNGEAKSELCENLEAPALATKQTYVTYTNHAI
Experiment: Displacement of [3H]N-(4-chloro-3-methoxyphenyl)picolinamide from human mGlu4 receptor expressed in CHO cell membranes incubated for 30 mins by liquid scintillation counting method
Recorded Endpoint: pIC50
Scale: pIC50 equals -log10([C]), with [C] in mol/L.

These recorded examples may help you get a feel for the data.
# Molecular String, pIC50
data = [
    ("COc1cc(NC(=O)c2cccc(F)n2)ccc1F", 7.05),
    ("[2H]C([2H])(F)Oc1cc(NC(=O)c2ccccn2)ccc1Cl", 8.49),
    ("N#Cc1cc(NC(=O)c2ccccn2)ccc1Cl", 8.28),
]

Need pIC50 of O=C(Nc1cccc(OC(F)F)c1)c1cccc(F)n1 , thanks. 8.17

Need pIC50 of N#Cc1cc(NC(=O)c2ccccn2)ccc1I , thanks. 6.76

Need pIC50 of COc1cc(NC(=O)c2ccccn2)ccc1I , thanks. 6.84

Need pIC50 of CSc1cccc(NC(=O)c2ccccn2)c1 , thanks. 8.31

Need pIC50 of N#Cc1cc(NC(=O)c2ccccn2)ccc1Br , thanks. 7.33

Need pIC50 of COc1cc(NC(=O)c2ccccn2)ccc1F , thanks. 7.50

Need pIC50 of COc1cc(NC(=O)c2ccccn2)ccc1Br , thanks. 6.49

====

Target Desc: Metabotropic glutamate receptor 4 (Homo sapiens)
Experiment: Displacement of [3H]N-(4-chloro-3-methoxyphenyl)picolinamide from human mGlu4 receptor expressed in CHO cell membranes incubated for 30 mins by liquid scintillation counting method
# IC50 values compiled below
Enter your answer as a number in nM; do not include the unit.

# Molecular String, Unit Symbol, IC50
data = [
    ("O=C(Nc1ccc(Cl)c(OCF)c1)c1ccccn1", "nM", 3.2),
    ("COc1cccc(NC(=O)c2ccccn2)c1", "nM", 13.7),
]

Record [2H]C([2H])(F)Oc1cccc(NC(=O)c2ccccn2)c1 : what is its IC50 with Metabotropic glutamate receptor 4 (Homo sapiens)? 3.7
